- TEST PARAMETERS: 353.15 K; Liquid; Closed cell (Static) method
ASSAY METRIC: vapor or sublimation pressure (kPa)

CCCCCCC :: 57.09
CCCCCC :: 142.4
Cc1ccccc1 :: 38.92
CCO :: 108.42
CCOC(C)=O [ethyl acetate] :: 111.76
